tested-system: recombinant HA subtype H6 (A/teal/HK/W312/97 (H6N1)) (influenza A virus)
test-name: ELISA, rHA coated
EC50 for assorted binders
outcome-measure: EC50 (µg/mL)

>>> readout_number("Antibody 8 (antibody, V domains shown) VH: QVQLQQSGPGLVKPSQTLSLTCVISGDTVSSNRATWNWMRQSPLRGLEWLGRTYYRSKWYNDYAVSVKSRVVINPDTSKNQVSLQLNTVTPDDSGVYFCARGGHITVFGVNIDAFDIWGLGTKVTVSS VL: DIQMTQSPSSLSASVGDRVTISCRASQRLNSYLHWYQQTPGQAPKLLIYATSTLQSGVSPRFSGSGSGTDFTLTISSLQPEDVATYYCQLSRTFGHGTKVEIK")
0.091
>>> readout_number("Antibody 6 (antibody, V domains shown) VH: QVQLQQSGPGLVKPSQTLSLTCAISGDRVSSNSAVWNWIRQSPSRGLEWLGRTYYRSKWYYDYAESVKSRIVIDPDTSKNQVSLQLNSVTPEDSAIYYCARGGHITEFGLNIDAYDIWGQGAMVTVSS VL: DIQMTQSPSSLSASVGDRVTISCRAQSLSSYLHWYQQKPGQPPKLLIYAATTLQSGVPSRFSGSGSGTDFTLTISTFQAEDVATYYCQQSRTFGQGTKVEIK")
0.214
>>> readout_number("Antibody 5 (antibody, V domains shown) VH: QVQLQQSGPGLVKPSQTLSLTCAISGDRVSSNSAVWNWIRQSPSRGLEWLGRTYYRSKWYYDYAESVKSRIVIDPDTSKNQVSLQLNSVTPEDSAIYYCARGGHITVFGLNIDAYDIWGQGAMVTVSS VL: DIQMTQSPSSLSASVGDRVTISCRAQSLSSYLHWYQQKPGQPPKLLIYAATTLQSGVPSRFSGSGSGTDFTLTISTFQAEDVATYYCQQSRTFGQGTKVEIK")
0.047
>>> readout_number("Antibody 10 (antibody, V domains shown) VH: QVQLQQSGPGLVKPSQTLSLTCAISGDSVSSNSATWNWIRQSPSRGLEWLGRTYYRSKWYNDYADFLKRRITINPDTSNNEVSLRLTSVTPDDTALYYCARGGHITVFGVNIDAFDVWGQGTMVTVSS VL: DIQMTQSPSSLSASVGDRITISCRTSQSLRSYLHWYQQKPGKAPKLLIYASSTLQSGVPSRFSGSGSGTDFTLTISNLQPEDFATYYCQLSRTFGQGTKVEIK")
0.097
